src = ChEMBL document CHEMBL2095176

The following molecules are listed with their measured MIC90 values.
- Test system: Mycobacterium tuberculosis variant bovis BCG
- assay-protocol: microbe, parasite or virus in culture
- Format: functional
API: value field is a number in µM; no unit string.

Example entries begin here.
Fc1ccc2[nH]c(-c3cccc(-c4ccc(CNCCN5CCNCC5)cc4)c3)nc2c1; 6.7
CCn1c(NC(=O)Cc2ccc(Cl)cc2)nc2ccccc21; 9.8
O=C(Cn1c(SCc2ccccc2F)nc2ccncc21)Nc1ccc(Br)cc1F; 8.3

Recorded MIC90 for Cl.O=C(c1ccco1)N(CCCn1ccnc1)c1nc2c(Cl)cccc2s1 , please?
7.2

Recorded MIC90 for O=C(c1[nH]nc2c1CCCC2)N1CCN(Cc2ccc3c(c2)OCO3)CC1 , please?
3.9

Recorded MIC90 for O=C(Cc1c(Cl)cccc1Cl)Nc1nc(-c2ccccn2)cs1 , please?
9.4

###

- Test system: Mycobacterium tuberculosis variant bovis BCG
- assay-protocol: microbe, parasite or virus in culture
- Assay type: functional
The following compounds are listed with their measured MIC90 values.
Entry format: amount then unit.

Example entries begin here.
CNC1=NC(=O)[C@H]([C@H](C)c2c[nH]c3ccccc23)O1; 5 µM
CCS(=O)(=O)c1cccc(C(=O)Nc2nc(-c3ccccn3)cs2)c1; 5.2 µM
Cc1c(C(=O)[C@@H]2C[C@H]2CN(Cc2ccccn2)Cc2ccccn2)sc2ccccc12; 7.1 µM
O=C(Nc1ccccc1-c1nc(Cl)cs1)OCC1CCNCC1; 5.2 µM

Recorded MIC90 for Fc1cccc2sc(Nc3nc(-c4ccccn4)cs3)nc12 , please?
2.3 µM

Recorded MIC90 for CCn1c(-c2ccccc2)nc2c(-c3ccc(C)cc3)ncc(OCCCN)c21 , please?
8.8 µM

Recorded MIC90 for O=C(c1ccc(-c2cccc(OCCN(CCO)C3CCCCC3)c2)cc1)N1CCCC1 , please?
6.5 µM

Recorded MIC90 for c1ccc(-c2csc(CN3CCC4(CC3)OCCc3sccc34)c2)cc1 , please?
2.7 µM

Recorded MIC90 for O=C(Nc1nnc(-c2ccccc2)o1)c1ccc(Cl)s1 , please?
9.8 µM

Recorded MIC90 for Cc1ccc(-c2nnc(NC(=O)c3cccc(C(F)(F)F)c3)o2)c(C)c1 , please?
4.4 µM

###

- Tested on: Mycobacterium tuberculosis variant bovis BCG
- assay-protocol: microbe, parasite or virus in culture
- Format: functional
observation-type: MIC90 (µM)
API: value field is a number in µM; no unit string.

Example entries begin here.
O=C(O)C(F)(F)F.c1ccc2c(-c3ccc(CNCC4CCNC4)cc3)cncc2c1 (stereo not given); 7.8
CSc1cccc(-c2nnc(NC(=O)c3ccc(Cl)s3)o2)c1; 9.6
CSc1ccc(-c2nnc(NC(=O)c3cc(Cl)sc3Cl)o2)cc1; 9.4
NC(=O)c1csc(-c2cccc(OCCNCCc3cccc(F)c3)c2)n1; 2
O=c1c2sc(-c3ccc(Cl)cc3)cc2ncn1-c1ccc(OCCN2CC[C@@H](F)C2)cc1; 6.7

Recorded MIC90 for COc1ccc(C(=O)[C@H]2C[C@@H]2CN(Cc2ccccn2)Cc2ccccn2)cc1 , please?
7.7

Recorded MIC90 for COc1ccc(-c2ccc(Nc3cccc(S(=O)(=O)CCNCC4CC4)c3)nc2)cn1 , please?
5.6

Recorded MIC90 for c1csc(-c2nnc(Sc3ccnc(N4CCN(c5ccncc5)CC4)n3)n2CCCN2CCOCC2)c1 , please?
5.4

Recorded MIC90 for Nc1cc(-c2ccc(Cl)cc2)nn1-c1cccc(C(=O)NCC2CC(=O)N(c3ccccc3)C2)c1 (stereo not given) , please?
5.9

Recorded MIC90 for O=C(COc1ccccc1F)Nc1nc(-c2ccccn2)cs1 , please?
8.7

###

- Test system: Mycobacterium tuberculosis variant bovis BCG
- assay-protocol: microbe, parasite or virus in culture
- Type: functional
observation-type: MIC90 (µM)
API: value field is a number in µM; no unit string.

Cn1c(SCC(=O)Nc2sccc2C#N)nnc1-c1ccc(Cl)cc1; 2.4
CC(Sc1nc2ccccc2[nH]1)C(=O)NNC(=O)c1ccncc1 (stereo not given); 1.6
CN(Cc1nc2ccccc2s1)C(=O)c1cccc(NC(=O)c2ccncc2)c1; 1.7
CCOc1ccc(-c2nc(NC(=O)C3CCCN3S(=O)(=O)c3cccs3)sc2C)cc1 (stereo not given); 2

Now turn to the next compound.
Recorded MIC90 for c1coc(-c2nnc(Sc3ccnc(N4CCN(c5ccncc5)CC4)n3)n2CCCN2CCOCC2)c1 , please?
2.8

###

- Test system: Mycobacterium tuberculosis variant bovis BCG
- assay-protocol: microbe, parasite or virus in culture
- Assay type: functional
Please note: MIC90 exactly at 4 µM is criterion not met. Only values below 4 µM get criterion met.

// below: answered molecules
CCCCOc1ccc(C(=O)Nc2nnc(-c3ccccc3)o2)cc1; criterion met
Cc1ccc(-c2ccnc(-c3cccc(-c4ccccn4)n3)c2)cc1; criterion not met
O=C1NN=C(c2ccc3c(c2)OCO3)N[C@H]1Cc1c[nH]c2ccccc12; criterion not met

Here is another molecule to look at.
Field: below-cutoff. Rule: recorded MIC90 strictly less than 4 µM. Subject: COc1cc(/C=C/C(=O)O)ccc1OCCN1CCCCCC1
criterion not met

###

The following compounds are listed with their measured MIC90 values.
- System: Mycobacterium tuberculosis variant bovis BCG
- assay-protocol: microbe, parasite or virus in culture
- Format: functional
API: value field is a number in µM; no unit string.

Example entries begin here.
O=C(CSc1ccc(Cl)cc1)NNC(=O)c1ccncc1; 8.1
Nc1nonc1-c1nc2c(-c3ccccc3)nccc2n1C1CCNCC1; 0.5
Cc1ccc2nc(C(F)(F)F)c(C(=O)NCc3ccc(C)o3)n2c1; 4.4
O=C(CCc1cccs1)Nc1nc(-c2ccccn2)cs1; 6.4
CCOc1ccccc1NC(=O)[C@H](Cc1ccccc1)NC(=O)c1cccs1; 9.5

Recorded MIC90 for CC(C)(C)c1ccc(-c2nnc(SCC(=O)OC3CCCCC3)o2)cc1 , please?
8.1

Recorded MIC90 for COc1ccc(-c2ccc(Nc3cccc(S(=O)(=O)CCN4CCc5ccccc5C4)c3)nc2)cn1 , please?
3.6

Recorded MIC90 for O=C(Nc1nc(-c2cccnc2)cs1)c1ccc(Br)s1 , please?
1.4

Recorded MIC90 for COc1ccc(N2CCN(c3ccc(C#N)cc3C(F)(F)F)CC2)c(OC)c1 , please?
3.7

Recorded MIC90 for Cc1ccc(CNC(=O)c2cnn3c2NC(c2ccc(C)cc2)CC3C(F)F)cc1 (configuration not stated) , please?
0.9

Recorded MIC90 for OC1(c2ccccc2)Oc2ccccc2N=C1c1ccccc1 (configuration not stated) , please?
4.8

Recorded MIC90 for O=C(Nc1nc(-c2ccccn2)cs1)c1ccno1 , please?
1.8

Recorded MIC90 for CC(C)N(C(=O)CSc1nc2cc(Cl)ccc2[nH]1)C(C)C , please?
9.5

Recorded MIC90 for O=S(=O)(c1ccc(Cl)cc1)N1CCC(n2nnc3cc(C(F)(F)F)ccc32)CC1 , please?
7.8

###

- System: Mycobacterium tuberculosis variant bovis BCG
- assay-protocol: microbe, parasite or virus in culture
- Format: functional
The following molecules are listed with their measured MIC90 values.
API: value field is a number in µM; no unit string.

Example entries begin here.
O=C(Nc1ccc(Oc2ccccc2)cc1)NC1CCCCC1; 3.9
CC(C)(C)OC(=O)n1cc(CN2CCC3(CC2)OCCc2sccc23)c2ccccc21; 9.5

Recorded MIC90 for CCN(CC)CCCn1c(Sc2ccnc(N3CCN(c4ccncc4)CC3)n2)nnc1-c1ccccn1 , please?
2.4

###

- Test system: Mycobacterium tuberculosis variant bovis BCG
- assay-protocol: microbe, parasite or virus in culture
- Assay type: functional
Please note: MIC90 exactly at 6 µM is not met. Only values below 6 µM get met.

O=c1nc(Oc2ccccc2)c(F)c[nH]1; met
NC(=O)c1cnc2ccc(S(=O)(=O)c3ccccc3)cc2c1Nc1ccc(O)c(F)c1; not met
CSc1ccc(C(=O)Nc2nnc(-c3ccc4c(c3)CCCC4)o2)cc1; not met
O=C(Nc1nnc(-c2ccc(Cl)cc2)o1)c1cccc(C(F)(F)F)c1; met
Cc1ccccc1CN1CCc2nc(N3CCN(c4ncccn4)CC3)ncc2C1; met
O=C(Nc1nnc(-c2ccc(Cl)s2)o1)c1ccc(Br)s1; met
C[C@@H]1CN(c2ccc(C#N)c(C(F)(F)F)c2)CCN1; met
O=C(Nc1nc(-c2ccccn2)cs1)c1ccc(Oc2ccccc2)cc1; not met

Field: below-cutoff. Rule: recorded MIC90 strictly less than 6 µM. Subject: c1ccc2oc(CN3CCC4(CC3)OCCc3sccc34)cc2c1
met

Field: below-cutoff. Rule: recorded MIC90 strictly less than 6 µM. Subject: O=C(c1cccc(-c2noc(-c3ccccc3)n2)c1)N1CCCCC1CCO (stereo unspecified)
met

###

The following compounds are listed with their measured MIC90 values.
- System: Mycobacterium tuberculosis variant bovis BCG
- assay-protocol: microbe, parasite or virus in culture
- Format: functional
Entry format: amount then unit.

NC(=O)c1cc(-c2ccsc2)ccc1OCCOc1ccccc1; 2.7 µM

Which measured MIC90 belongs to O=C(NNC(=O)c1cccs1)c1ccc(Oc2ccccc2)cc1 , tested on Mycobacterium tuberculosis variant bovis BCG?
4.4 µM

Which measured MIC90 belongs to O=C(c1ccccc1)N1CCN(c2ccccc2NC(=O)C(Cl)(Cl)Cl)CC1 , tested on Mycobacterium tuberculosis variant bovis BCG?
1 µM

Which measured MIC90 belongs to O=C(NCCCn1nc(Cl)c(N2CCCNCC2)cc1=O)c1ccc(-c2ccccc2)cc1 , tested on Mycobacterium tuberculosis variant bovis BCG?
10 µM

Which measured MIC90 belongs to Cc1ccc(CCNC(=O)c2c(-c3ccc(F)cc3F)noc2C)cc1 , tested on Mycobacterium tuberculosis variant bovis BCG?
9.8 µM

Which measured MIC90 belongs to CN(CCOc1cccc(-c2ccc(C(=O)N3CCCC3)cc2)c1)Cc1cc(-c2ccccc2)no1 , tested on Mycobacterium tuberculosis variant bovis BCG?
3.1 µM

Which measured MIC90 belongs to Cc1c(Cl)cc(F)cc1S(=O)(=O)NCCCn1nc(Cl)c(N2CCCNCC2)cc1=O , tested on Mycobacterium tuberculosis variant bovis BCG?
7.9 µM

Which measured MIC90 belongs to Cn1cc(-c2noc(CCNCCC(C)(C)C)n2)c2ccccc21 , tested on Mycobacterium tuberculosis variant bovis BCG?
9.3 µM

Which measured MIC90 belongs to O=C(COc1ccccc1)N1CCN(c2cnc3ccccc3n2)CC1 , tested on Mycobacterium tuberculosis variant bovis BCG?
9.3 µM

Which measured MIC90 belongs to COc1ccc(CN(C)S(=O)(=O)c2ccc(OC)c(-c3nc(C(C)C)no3)c2)cc1 , tested on Mycobacterium tuberculosis variant bovis BCG?
7.3 µM

Which measured MIC90 belongs to CC1CCC(NC(=O)Nc2ccc3snnc3c2)CC1 (configuration not stated) , tested on Mycobacterium tuberculosis variant bovis BCG?
7 µM

Which measured MIC90 belongs to Cc1ccc2nc(C)c(C(=O)NCc3ccco3)n2c1 , tested on Mycobacterium tuberculosis variant bovis BCG?
1 µM
